Tested system: T1, 14-3-3σ (UniProt P31947 1-248)
T1 chain: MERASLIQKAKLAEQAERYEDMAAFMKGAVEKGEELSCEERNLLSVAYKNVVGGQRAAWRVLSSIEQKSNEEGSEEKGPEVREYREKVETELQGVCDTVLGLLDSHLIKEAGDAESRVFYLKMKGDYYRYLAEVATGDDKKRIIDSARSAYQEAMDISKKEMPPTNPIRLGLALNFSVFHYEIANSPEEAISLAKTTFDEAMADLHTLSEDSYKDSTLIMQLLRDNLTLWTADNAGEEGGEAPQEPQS
Protocol: FP; 100 uM compound 23
No end group written: not given here.
Endpoint: Kd (nM)
One number for each entry, in nM.

Qu. Which Kd value is on record for LQRIRSTSTPNVHMV (also: phosphoserine at S214, site in chain not given here) [15-mer A-RAF peptide] ?
Ans. 5
